Reference source: the Immune Epitope Database (IEDB)

Consider the following sequences and their measured log10 of IC50 readings.
- test_system: HLA-A*02:01
- assay_method_text: IEDB peptide-MHC binding, purified MHC/competitive/radioactivity; bounds were set here for any values at or beyond the usual limits of such assays
- details: source organism: Homo sapiens
metric_name: log10 of IC50 (log10 of the value in nM)

{"residues": "VLNSVASLL", "test_system": "HLA-A*02:01", "log10 of IC50": 3.06}
{"residues": "RLLYPDYQI", "test_system": "HLA-A*02:01", "log10 of IC50": 2.09}
{"residues": "LLSLFSLWL", "test_system": "HLA-A*02:01", "log10 of IC50": 2.18}
{"residues": "IQATVMIIV", "test_system": "HLA-A*02:01", "log10 of IC50": 3.96}
{"residues": "KMYAFTLES", "test_system": "HLA-A*02:01", "log10 of IC50": 2.94}
{"residues": "LASEKVYAI", "test_system": "HLA-A*02:01", "log10 of IC50": 3.84}
{"residues": "YIPSCTVVGM", "test_system": "HLA-A*02:01", "log10 of IC50": 3.98}
{"residues": "LLGRFELIGI", "test_system": "HLA-A*02:01", "log10 of IC50": 2.37}
{"residues": "VMNILLQYV", "test_system": "HLA-A*02:01", "log10 of IC50": 3.31}
{"residues": "LLSILCIWV", "test_system": "HLA-A*02:01", "log10 of IC50": 2.87}
{"residues": "ELAEYLYNI", "test_system": "HLA-A*02:01", "log10 of IC50": 2.80}
{"residues": "ILKDFSILL", "test_system": "HLA-A*02:01", "log10 of IC50": 1.59}
{"residues": "ILDKKVEKV", "test_system": "HLA-A*02:01", "log10 of IC50": 4.05}
{"residues": "VVTGVLVYL", "test_system": "HLA-A*02:01", "log10 of IC50": 0.95}
{"residues": "VIVMLTPLV", "test_system": "HLA-A*02:01", "log10 of IC50": 3.33}
{"residues": "HLCGSHLVEA", "test_system": "HLA-A*02:01", "log10 of IC50": 3.88}
{"residues": "FLQDVMNIL", "test_system": "HLA-A*02:01", "log10 of IC50": 1.85}
{"residues": "FMTSSWWRAPL", "test_system": "HLA-A*02:01", "log10 of IC50": 1.92}
{"residues": "VAANIVLTV", "test_system": "HLA-A*02:01", "log10 of IC50": 2.51}
{"residues": "NLAQDLATV", "test_system": "HLA-A*02:01", "log10 of IC50": 1.83}
{"residues": "STVASWLGPV", "test_system": "HLA-A*02:01", "log10 of IC50": 3.97}
{"residues": "FLLSLFSLWL", "test_system": "HLA-A*02:01", "log10 of IC50": 1.20}
{"residues": "LLIDLTSFL", "test_system": "HLA-A*02:01", "log10 of IC50": 0.91}
{"residues": "LVEALYLVC", "test_system": "HLA-A*02:01", "log10 of IC50": 4.07}
{"residues": "ALARGAGTVPL", "test_system": "HLA-A*02:01", "log10 of IC50": 1.46}
{"residues": "LLQVHHSCPL", "test_system": "HLA-A*02:01", "log10 of IC50": 3.49}
{"residues": "VLVEGSTRI", "test_system": "HLA-A*02:01", "log10 of IC50": 4.24}
{"residues": "FLFAVGFYL", "test_system": "HLA-A*02:01", "log10 of IC50": 0.04}
{"residues": "RLLPLWAALPL", "test_system": "HLA-A*02:01", "log10 of IC50": 0.73}
{"residues": "NLLGRFELIGI", "test_system": "HLA-A*02:01", "log10 of IC50": 0.26}
{"residues": "SMCRFSPLTL", "test_system": "HLA-A*02:01", "log10 of IC50": 3.06}
{"residues": "GVFIQVYEV", "test_system": "HLA-A*02:01", "log10 of IC50": 2.66}
{"residues": "LIFDLGGGT", "test_system": "HLA-A*02:01", "log10 of IC50": 3.73}
{"residues": "ALWGPDPAAA", "test_system": "HLA-A*02:01", "log10 of IC50": 3.00}
{"residues": "LLLLDVAPL", "test_system": "HLA-A*02:01", "log10 of IC50": 1.00}
{"residues": "FIQVYEVERA", "test_system": "HLA-A*02:01", "log10 of IC50": 3.85}
{"residues": "TIADFWQMV", "test_system": "HLA-A*02:01", "log10 of IC50": 3.67}
{"residues": "KLQVFLIVL", "test_system": "HLA-A*02:01", "log10 of IC50": 3.14}
{"residues": "ALGDLFQSI", "test_system": "HLA-A*02:01", "log10 of IC50": 1.88}
{"residues": "LLQEYNWEL", "test_system": "HLA-A*02:01", "log10 of IC50": 1.54}
{"residues": "VMNILLQYVV", "test_system": "HLA-A*02:01", "log10 of IC50": 3.36}
{"residues": "ALTAVAEEV", "test_system": "HLA-A*02:01", "log10 of IC50": 3.12}
{"residues": "TLSSRVCCRT", "test_system": "HLA-A*02:01", "log10 of IC50": 3.44}
{"residues": "LLPPLLEHL", "test_system": "HLA-A*02:01", "log10 of IC50": 2.65}
{"residues": "WLLPLWAALPL", "test_system": "HLA-A*02:01", "log10 of IC50": 0.51}
{"residues": "TVASRLGPV", "test_system": "HLA-A*02:01", "log10 of IC50": 3.89}
{"residues": "SLTAISTTL", "test_system": "HLA-A*02:01", "log10 of IC50": 2.38}
{"residues": "VLHELFGMDI", "test_system": "HLA-A*02:01", "log10 of IC50": 2.46}
{"residues": "RMMEYGTTMV", "test_system": "HLA-A*02:01", "log10 of IC50": 2.85}
{"residues": "LLDVAPLSL", "test_system": "HLA-A*02:01", "log10 of IC50": 1.71}
{"residues": "RLRPLCCTA", "test_system": "HLA-A*02:01", "log10 of IC50": 3.92}
{"residues": "RLGPVARTRV", "test_system": "HLA-A*02:01", "log10 of IC50": 2.76}
{"residues": "SMPQGTFPV", "test_system": "HLA-A*02:01", "log10 of IC50": 2.80}
{"residues": "SLYHVYEVNL", "test_system": "HLA-A*02:01", "log10 of IC50": 2.32}
{"residues": "FLWSVFMLI", "test_system": "HLA-A*02:01", "log10 of IC50": 1.41}
{"residues": "LLHVHHSCPL", "test_system": "HLA-A*02:01", "log10 of IC50": 3.89}
{"residues": "SLFEGVDFYT", "test_system": "HLA-A*02:01", "log10 of IC50": 1.71}
{"residues": "KVLHELFGMDI", "test_system": "HLA-A*02:01", "log10 of IC50": 1.04}
{"residues": "HIAGSLAVV", "test_system": "HLA-A*02:01", "log10 of IC50": 2.33}
{"residues": "LMGDKSENV", "test_system": "HLA-A*02:01", "log10 of IC50": 3.87}
{"residues": "MVWESGCTV", "test_system": "HLA-A*02:01", "log10 of IC50": 2.10}
{"residues": "WLLPLWAAL", "test_system": "HLA-A*02:01", "log10 of IC50": 0.62}
{"residues": "FLWSVFWLI", "test_system": "HLA-A*02:01", "log10 of IC50": 1.74}
{"residues": "ILMHCQTTL", "test_system": "HLA-A*02:01", "log10 of IC50": 2.68}
{"residues": "ILAVDGVLSV", "test_system": "HLA-A*02:01", "log10 of IC50": 0.34}
{"residues": "HLSYHRLLPL", "test_system": "HLA-A*02:01", "log10 of IC50": 3.63}
{"residues": "SLASLLPHV", "test_system": "HLA-A*02:01", "log10 of IC50": 0.96}
{"residues": "STVASRLGPV", "test_system": "HLA-A*02:01", "log10 of IC50": 4.40}
{"residues": "SLSPLQAEL", "test_system": "HLA-A*02:01", "log10 of IC50": 2.00}
{"residues": "LMFWSPSHSCA", "test_system": "HLA-A*02:01", "log10 of IC50": 2.16}
{"residues": "SVASLLPHV", "test_system": "HLA-A*02:01", "log10 of IC50": 3.25}
{"residues": "KLANIQCLCL", "test_system": "HLA-A*02:01", "log10 of IC50": 1.99}
{"residues": "NLLGRFELI", "test_system": "HLA-A*02:01", "log10 of IC50": 2.88}
{"residues": "SISVLISAL", "test_system": "HLA-A*02:01", "log10 of IC50": 3.19}
{"residues": "TMHSLTIQM", "test_system": "HLA-A*02:01", "log10 of IC50": 2.02}
{"residues": "HLASEKVYAI", "test_system": "HLA-A*02:01", "log10 of IC50": 3.61}
{"residues": "SLTTISTTL", "test_system": "HLA-A*02:01", "log10 of IC50": 2.37}
{"residues": "SHLVEALYLV", "test_system": "HLA-A*02:01", "log10 of IC50": 3.33}
{"residues": "ILVLASTITI", "test_system": "HLA-A*02:01", "log10 of IC50": 2.83}
{"residues": "GLLQVHHSCPL", "test_system": "HLA-A*02:01", "log10 of IC50": 0.76}
{"residues": "LNIDLLWSV", "test_system": "HLA-A*02:01", "log10 of IC50": 2.84}
{"residues": "RLQREWHTL", "test_system": "HLA-A*02:01", "log10 of IC50": 3.09}
{"residues": "YLLLRVLNI", "test_system": "HLA-A*02:01", "log10 of IC50": 1.76}
{"residues": "AVAANIVLTV", "test_system": "HLA-A*02:01", "log10 of IC50": 2.76}
{"residues": "FLIVLSVAL", "test_system": "HLA-A*02:01", "log10 of IC50": 1.41}
{"residues": "SLEEEIRFL", "test_system": "HLA-A*02:01", "log10 of IC50": 2.67}
